I'd be grateful if you could share measured residual activity for these entries.
Molecular target: Receptor-type tyrosine-protein kinase FLT3 (Homo sapiens) (UniProt P36888)
Sequence (P36888 whole entry): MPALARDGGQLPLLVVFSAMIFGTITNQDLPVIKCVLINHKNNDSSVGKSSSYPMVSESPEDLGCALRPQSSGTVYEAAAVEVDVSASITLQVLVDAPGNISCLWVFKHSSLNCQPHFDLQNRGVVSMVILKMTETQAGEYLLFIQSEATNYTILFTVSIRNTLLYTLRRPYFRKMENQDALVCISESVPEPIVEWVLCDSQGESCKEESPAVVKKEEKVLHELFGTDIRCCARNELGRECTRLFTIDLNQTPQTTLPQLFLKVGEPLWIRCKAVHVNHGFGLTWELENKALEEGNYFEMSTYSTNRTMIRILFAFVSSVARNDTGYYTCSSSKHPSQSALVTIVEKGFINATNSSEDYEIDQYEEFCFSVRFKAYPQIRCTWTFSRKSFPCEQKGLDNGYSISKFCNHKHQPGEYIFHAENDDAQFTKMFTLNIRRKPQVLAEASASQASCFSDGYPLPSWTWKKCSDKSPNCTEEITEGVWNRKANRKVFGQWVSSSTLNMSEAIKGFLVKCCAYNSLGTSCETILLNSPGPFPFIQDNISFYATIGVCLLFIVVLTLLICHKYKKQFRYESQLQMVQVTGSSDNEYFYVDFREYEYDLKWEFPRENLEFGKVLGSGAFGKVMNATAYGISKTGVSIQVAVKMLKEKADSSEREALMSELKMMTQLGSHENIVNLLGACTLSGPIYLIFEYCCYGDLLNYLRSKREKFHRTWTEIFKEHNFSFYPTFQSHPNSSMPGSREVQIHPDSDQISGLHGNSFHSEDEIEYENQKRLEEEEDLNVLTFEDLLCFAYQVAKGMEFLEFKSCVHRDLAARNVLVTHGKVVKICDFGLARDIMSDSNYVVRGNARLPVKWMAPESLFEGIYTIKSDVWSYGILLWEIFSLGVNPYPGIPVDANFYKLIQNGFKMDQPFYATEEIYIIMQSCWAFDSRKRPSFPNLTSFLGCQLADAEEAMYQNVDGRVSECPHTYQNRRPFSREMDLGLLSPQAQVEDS
Conditions: at 1 µM
Please don't drop the unit; write it after the number.

# count of solved cases: 3
test_smiles=Cc1cc(C)c(/C=C2\C(=O)Nc3ccccc32)[nH]1 assay_readout="residual activity" experimental_result=1%
test_smiles=CCN(CC)CCNC(=O)c1c(C)[nH]c(/C=C2\C(=O)Nc3ccc(Cl)cc32)c1C assay_readout="residual activity" experimental_result=1%
test_smiles=O=c1cc(N2CCOCC2)oc2c1ccc1ccccc12 assay_readout="residual activity" experimental_result=101%

Receptor-type tyrosine-protein kinase FLT3 (Homo sapiens) (UniProt P36888) / residual activity / Cn1sc(=O)n(Cc2ccccc2)c1=O : value?
86%
